Tested on: antibody
MEASUREMENT DESCRIPTION: Pepscan ELISA, replacement analyses of three leads and consensus (Example-6)
Assay type: binding
RUN PARAMETERS: value is the antibody concentration
MEASUREMENT NAME: activity at

YICHWA : activity at ≥0.5 µg/ml
NVCHWA : activity at ≥0.5 µg/ml

====

Test system: Monoclonal antibody 26/9
MEASUREMENT DESCRIPTION: PEPSCAN-based ELISA, binding of peptides to antibody 26/9 (Example-1)
RUN PARAMETERS: value is the antibody 26/9 concentration at which the peptide shows binding activity in pepscan elisa
MEASUREMENT NAME: activity at

Recorded activity at, per entry:
EGCAAMNIRCYA activity at ≥ 10.0 µg/ml
CGCAAENIRCYA activity at ≥ 10.0 µg/ml
CMCAAMNIRCYA activity at ≥ 10.0 µg/ml
EMDEEEDVMNYA activity at ≥ 0.1 µg/ml

stdin: Please report the recorded activity at for CGDAAMNIRCYA .
stdout: activity at ≥ 10.0 µg/ml

stdin: Please report the recorded activity at for CGCAANINIMCYA .
stdout: activity at ≥ 10.0 µg/ml

stdin: Please report the recorded activity at for CGCAAMDIRCYA .
stdout: activity at ≥ 10.0 µg/ml

stdin: Please report the recorded activity at for EMDEEEDIPNYA .
stdout: activity at ≥ 0.1 µg/ml

stdin: Please report the recorded activity at for CGCAAMNIRNYA .
stdout: activity at ≥ 10.0 µg/ml

stdin: Please report the recorded activity at for CGCEAMMIRCYA .
stdout: activity at ≥ 10.0 µg/ml

stdin: Please report the recorded activity at for CGCAEMNIRCYA .
stdout: activity at ≥ 10.0 µg/ml

stdin: Please report the recorded activity at for EMDEEEDIMDYA .
stdout: activity at ≥ 0.1 µg/ml
